src = PubChem BioAssay AID463173

- Tested on: DeltatarO mutant
- assayOverview: S. aureus survival, RN4220 and DeltatarO strains – OD600, teichoic acid synthesis inhibitors, primary screen (AID 463173)
- conditionSet: S. aureus RN4220 wild type/DeltatarO growth, OD600, 18 h, active compounds read low, screened at 18.75 µg/mL (by protocol)
In all, about 52,000 compounds went through this assay and about 4,300 (8.3%) were called active. The entries come from a sample that favours actives as a whole.
measureName: survival (%)
Give your result in % as a bare value.

[
  {
    "molecule": "CCOC(=O)c1oc2c(c1C)-c1nn(Cc3ccccc3Cl)cc1CC2",
    "targetOfAssay": "DeltatarO mutant",
    "testValue": 38
  },
  {
    "molecule": "COc1ccc(NC(=O)c2nc(SCc3ccc(F)cc3)ncc2Cl)cc1",
    "targetOfAssay": "DeltatarO mutant",
    "testValue": 69
  }
]

stdin: Requested field: survival. Item: Cc1cccc(NC(=O)Cn2c(SCC(=O)NCc3ccccc3)nc3ccccc32)c1C
stdout: 119

stdin: Requested field: survival. Item: O=C(OCC(=O)N1CCc2ccccc21)c1ccccc1
stdout: 92

stdin: Requested field: survival. Item: Cc1cc(C)cc(NC(=O)Cn2c(C(F)(F)F)nc3ccccc32)c1
stdout: 67

stdin: Requested field: survival. Item: Cc1ccc(CS(=O)(=O)c2ncc(Cl)c(C(=O)Nc3nnc(C(C)C)s3)n2)cc1
stdout: 54

====

- Test system: DeltatarO mutant
- assayOverview: S. aureus survival, RN4220 and DeltatarO strains – OD600, teichoic acid synthesis inhibitors, primary screen (AID 463173)
- conditionSet: S. aureus RN4220 wild type/DeltatarO growth, OD600, 18 h, screened at 18.75 µg/mL (by protocol)
In all, about 52,000 compounds went through this assay and about 4,300 (8.3%) were called active. Rule as the data show it: active = survival mostly below about 52% (no sharp cut-off); inactive = mostly above about 56%. The list comes from a sample in which actives are over-represented; it also holds close analogues and randomly drawn compounds.
Your response should consist of one outcome taken from active, inactive

As a guide, the following entries are already answered.
[
  {
    "compound": "O=C(Nc1ccc(C(=O)OCc2cc(=O)n3ccsc3n2)cc1)c1cccc(F)c1",
    "targetOfAssay": "DeltatarO mutant",
    "classification": "inactive"
  },
  {
    "compound": "O=C(NCCc1ccc(Cl)cc1)c1ccc2c(c1)N(Cc1cccc(Cl)c1)C(=O)c1ccccc1S2(=O)=O",
    "targetOfAssay": "DeltatarO mutant",
    "classification": "inactive"
  },
  {
    "compound": "CCCn1c2ccccc2c2cnn(CC(=O)NC(C)CC)c(=O)c21 (stereo not given)",
    "targetOfAssay": "DeltatarO mutant",
    "classification": "inactive"
  },
  {
    "compound": "Cc1cccc(NC(=O)CSc2nc3c(oc4ccccc43)c(=O)n2C(C)C)c1",
    "targetOfAssay": "DeltatarO mutant",
    "classification": "inactive"
  },
  {
    "compound": "COc1cc(OC)c(NC(=O)c2c3c(nc4ccccc24)C(=O)N(C2CCCCC2)C3)cc1Cl",
    "targetOfAssay": "DeltatarO mutant",
    "classification": "inactive"
  },
  {
    "compound": "Cc1oc(-c2cccc(Cl)c2)nc1CS(=O)(=O)CC(=O)NC(C)CCc1ccccc1 (stereo not given)",
    "targetOfAssay": "DeltatarO mutant",
    "classification": "active"
  },
  {
    "compound": "O=C(NCc1ccccc1F)C1CCN(Cc2cc3ccccc3n2Cc2cccc(Cl)c2)CC1",
    "targetOfAssay": "DeltatarO mutant",
    "classification": "inactive"
  },
  {
    "compound": "Cc1oc(-c2ccccc2Cl)nc1CS(=O)(=O)CC(=O)NC(C)CCc1ccccc1 (stereo not given)",
    "targetOfAssay": "DeltatarO mutant",
    "classification": "inactive"
  }
]

stdin: // outcome(item) with item = Cc1ccc(NC(=O)N(Cc2c[nH]c3ccccc23)C2CCCCCC2)cc1C
stdout: inactive

stdin: // outcome(item) with item = Cc1ccc[n+](CC(=O)c2cccs2)c1
stdout: inactive

stdin: // outcome(item) with item = CCOC(=O)c1c(S(=O)(=O)NCC(=O)N2CCN(c3cccc(Cl)c3)CC2)c(C)n(C)c1C
stdout: inactive

stdin: // outcome(item) with item = CCCCN1C(=O)c2[nH]nc(-c3ccccc3O)c2C1c1cccc(OCc2ccccc2)c1 (stereo not given)
stdout: active

stdin: // outcome(item) with item = COc1ccc(NC(=O)c2c(NC(=O)COc3ccccc3)sc3c2CCC(C(C)(C)C)C3)cc1 (stereo not given)
stdout: inactive

stdin: // outcome(item) with item = O=C1c2[nH]nc(-c3ccccc3O)c2C(c2cccc(O)c2)N1Cc1ccncc1 (stereo not given)
stdout: inactive

stdin: // outcome(item) with item = CCCN1C(=O)c2[nH]nc(-c3ccccc3)c2C1c1cccc(O)c1 (stereo not given)
stdout: inactive

stdin: // outcome(item) with item = Cc1ccc(C)c(N2CCN(C(=O)C3CCN(C(=O)c4cc5sccc5n4C)CC3)CC2)c1
stdout: inactive

stdin: // outcome(item) with item = CCN(CC)c1ccc(NC(=O)Cn2cc3c(n2)CCCC3)c(C)c1
stdout: inactive

stdin: // outcome(item) with item = COc1ccc2[nH]c(=O)c(CN(C(=O)Nc3ccccc3)C3CCCC3)cc2c1
stdout: inactive

stdin: // outcome(item) with item = Cc1ccccc1NC(=O)c1c(NC(=O)c2ccncc2)sc2c1CCC(C(C)(C)C)C2 (stereo not given)
stdout: inactive

stdin: // outcome(item) with item = O=C(CC1C(=O)N(c2ccc(F)cc2)C(=O)N1Cc1ccc2c(c1)OCO2)Nc1ccc(F)cc1 (stereo not given)
stdout: inactive

stdin: // outcome(item) with item = CCCNc1ccc(-c2nc(-c3ccccn3)no2)cc1[N+](=O)[O-]
stdout: inactive

stdin: // outcome(item) with item = O=C(Cn1ncc2c3ccccc3n(Cc3ccc(F)cc3)c2c1=O)NC1CCCCCC1
stdout: inactive

stdin: // outcome(item) with item = COc1ccc(NC(=O)N2CCOc3ccc(Cl)cc32)cc1
stdout: active

====

- Test system: DeltatarO mutant
- assayOverview: S. aureus survival, RN4220 and DeltatarO strains – OD600, teichoic acid synthesis inhibitors, primary screen (AID 463173)
- conditionSet: S. aureus RN4220 wild type/DeltatarO growth, OD600, 18 h, screened at 18.75 µg/mL (by protocol)
The whole screen tested about 52,000 compounds, of which about 4,300 (8.3%) were called active. No stated cut-off is given here; in the data, active means survival mostly below about 52% (no sharp cut-off); inactive means mostly above about 56%. What follows is part of a selection rich in actives, with near analogues and random picks from the rest.
Your response should consist of one outcome taken from active, inactive

[
  {
    "compound": "CC(C)(C)C(=O)CSc1nc2ccsc2c(=O)n1Cc1ccccc1F",
    "targetOfAssay": "DeltatarO mutant",
    "classification": "inactive"
  },
  {
    "compound": "CCOc1ccccc1CNC(=O)c1[nH]c2ccccc2c1Sc1ccccc1",
    "targetOfAssay": "DeltatarO mutant",
    "classification": "inactive"
  }
]

stdin: // outcome(item) with item = O=C(Cn1cnc(S(=O)(=O)N2CCCC2)c1)Nc1cccc(F)c1
stdout: inactive

stdin: // outcome(item) with item = Cn1c(SCC(=O)N2c3ccccc3Sc3ccccc32)nnc1-c1ccco1
stdout: inactive

stdin: // outcome(item) with item = O=C(CCC1N=C2c3ccccc3N=C(SCc3cccc(Cl)c3)N2C1=O)N1CCN(c2ccccc2)CC1 (centres undefined)
stdout: active

stdin: // outcome(item) with item = Cc1ccc(CNC(=O)Cc2csc3ccccc23)cc1
stdout: inactive

stdin: // outcome(item) with item = CCOC(=O)c1c(Nc2ccccc2)nnc(-c2ccccc2)c1-c1ccccc1
stdout: active

====

- Tested on: DeltatarO mutant
- assayOverview: S. aureus survival, RN4220 and DeltatarO strains – OD600, teichoic acid synthesis inhibitors, primary screen (AID 463173)
- conditionSet: S. aureus RN4220 wild type/DeltatarO growth, OD600, 18 h, screened at 18.75 µg/mL (by protocol)
The campaign covered roughly 52,000 compounds. About 4,300 (8.3%) were called active. Rule as the data show it: active = survival mostly below about 52% (no sharp cut-off); inactive = mostly above about 56%. This is one part of a sample in which actives are shown more often than they occur.
Your response should consist of one outcome taken from active, inactive

As a guide, the following entries are already answered.
[
  {
    "compound": "Cc1ccc(CNCc2cccn2-c2nnc(N3CCCC3)s2)cc1",
    "classification": "inactive"
  },
  {
    "compound": "COc1cccc(CNCc2cccn2-c2nnc(N3CCN(c4ccccc4)CC3)s2)c1",
    "classification": "inactive"
  }
]

Could you now consider this next compound?
stdin: // outcome(item) with item = Cc1ccc(-c2n[nH]c3c2C(c2cccc(O)c2)N(c2ccc(C(=O)O)cc2)C3=O)cc1 (stereo not given)
stdout: inactive

====

- Test system: DeltatarO mutant
- assayOverview: S. aureus survival, RN4220 and DeltatarO strains – OD600, teichoic acid synthesis inhibitors, primary screen (AID 463173)
- conditionSet: S. aureus RN4220 wild type/DeltatarO growth, OD600, 18 h, screened at 18.75 µg/mL (by protocol)
The campaign covered roughly 52,000 compounds. About 4,300 (8.3%) were called active. Rule as the data show it: active = survival mostly below about 52% (no sharp cut-off); inactive = mostly above about 56%. The entries come from a sample that favours actives as a whole.
Your response should consist of one outcome taken from active, inactive

As a guide, the following entries are already answered.
[
  {
    "molecule": "O=C(CSC1=Nc2ccccc2C2=NC(CCC(=O)NC3CCCCC3)C(=O)N12)Nc1cccc(Cl)c1 (centres undefined)",
    "classification": "inactive"
  },
  {
    "molecule": "Cc1ccc(Cn2c(=O)n(CC3CCC(C(=O)N4CCOCC4)CC3)c(=O)c3sccc32)cc1 (centres undefined)",
    "classification": "inactive"
  },
  {
    "molecule": "CCCN1CCN(CCCNC(=O)c2cc3c(=O)[nH]c4ccccc4c3s2)CC1",
    "classification": "inactive"
  },
  {
    "molecule": "CCOc1ccc(-c2cccc(NS(=O)(=O)c3ccc(Cl)s3)c2)nn1",
    "classification": "inactive"
  },
  {
    "molecule": "CCN(Cc1ccccc1)Cc1c(O)ccc2oc(C)c(C(=O)Nc3ccccc3C)c12",
    "classification": "active"
  },
  {
    "molecule": "OP(Oc1ccccc1)(Oc1ccccc1)=P(O)(Oc1ccccc1)Oc1ccccc1",
    "classification": "inactive"
  },
  {
    "molecule": "CN(C)c1ccc(CNC(=O)CN2CCSc3ccc(S(=O)(=O)N(C)C)cc32)cc1",
    "classification": "inactive"
  },
  {
    "molecule": "COc1ccc(N2CCN(C(=O)c3ccc4c(c3)N(Cc3ccc(F)cc3)C(=O)c3ccccc3S4=O)CC2)cc1 (centres undefined)",
    "classification": "inactive"
  },
  {
    "molecule": "Cc1cccc(CNC(=O)c2cnc3sc(N4CCCCCC4)nn3c2=O)c1",
    "classification": "inactive"
  },
  {
    "molecule": "COc1ccc(OCc2nnc(SCC(=O)NCc3ccco3)o2)cc1",
    "classification": "inactive"
  }
]

stdin: // outcome(item) with item = CCc1cccc(OCC(=O)Nc2ccc(S(=O)(=O)Nc3ncccn3)cc2)c1
stdout: active
